- System: HCV
- ASSAY PROCEDURE: Anti-HCV effect in vitro, intracellular HCV RNA by real-time RT-PCR in infected Huh7.5 cells
- Assay type: cell-based, hepatitis C virus
- CONDITION NOTES: Huh7.5 cells
OBSERVED PROPERTY: SI (ratio of CC50 to EC50)
Answers are plain numbers.

- MOLECULE: "O=[N+]([O-])c1cccc(CN2C[C@@H]3CCCN4CCC[C@@H]([C@H]34)[C@H]2/C=C\\CCO)c1"
  EXPERIMENTAL VALUE: 17.0
- MOLECULE: "Cc1ccc(CN2CC3CCCN4CCCC(C2CCCC(C)(C)O)C34)cc1.Cl.Cl (centres unmarked) [10b]"
  EXPERIMENTAL VALUE: 67.9
- MOLECULE: "Cl.Cl.O=C(CN1CC2CCCN3CCCC(C1CCCCO)C23)Nc1ccc(C(F)(F)F)cc1 (centres unmarked)"
  EXPERIMENTAL VALUE: 20.6
- MOLECULE: "Cl.Cl.OCC/C=C\\C1C2CCCN3CCCC(CN1Cc1ccc(F)cc1)C23 (centres unmarked) [14b]"
  EXPERIMENTAL VALUE: 11.5

Turning to the following molecule.
IN: Look up SI (ratio of CC50 to EC50) with HCV for this molecule: CC(C)(O)CCCC1C2CCCN3CCCC(CN1Cc1ccc(F)cc1F)C23.Cl.Cl (centres unmarked) [10d]
OUT: 23.8
